experiment: qHTS RealTime-Glo MT Cell Viability Assay in HEK293 cells - 0 hour (AID 1224880); settings: RealTime-Glo luminescence; series mostly up to 76.8 µM; note: nearly all actives have a fitted effect of over 45% in size; note: potency is the fitted concentration of half-maximal effect
Results filed as inconclusive are left out. Activity calls are given as the source filed them. Calls come from the whole dose curve; as a rule, active = well fitted cell-killing curve with a large enough effect in the repeat runs; inconclusive = weak or mixed curves, or effect the other way; inactive = flat fitted curve, though single readings scatter.
measurement_label: Potency

{"columns": ["compound", "value_measured"],
 "data": [
  ["C[C@]12CC[C@H]3[C@@H](CCC4=CC(=O)CC[C@@]43C)[C@@H]1CC[C@@H]2C(=O)CO", "17.4 µM (active)"],
  ["CCCc1c(OCCCCc2nn[nH]n2)ccc(C(C)=O)c1O", "inactive"],
  ["OCCO", "inactive"],
  ["Nc1ccc(S(=O)(=O)Nc2cnc3ccccc3n2)cc1", "inactive"],
  ["Clc1nc(Cl)c(Cl)c(Cl)c1Cl", "inactive"],
  ["CC1=CC2C3CC(C=C3C)C2C1 (stereo not drawn)", "inactive"],
  ["OC[C@H]1O[C@@H]2O[C@H]3[C@H](O)[C@@H](O)[C@@H](O[C@H]4[C@H](O)[C@@H](O)[C@@H](O[C@H]5[C@H](O)[C@@H](O)[C@@H](O[C@H]6[C@H](O)[C@@H](O)[C@@H](O[C@H]7[C@H](O)[C@@H](O)[C@@H](O[C@H]8[C@H](O)[C@@H](O)[C@@H](O[C@H]1[C@H](O)[C@H]2O)O[C@@H]8CO)O[C@@H]7CO)O[C@@H]6CO)O[C@@H]5CO)O[C@@H]4CO)O[C@@H]3CO", "inactive"],
  ["CC(C)(C)NC(=O)[C@H]1CC[C@H]2[C@@H]3CC[C@H]4NC(=O)C=C[C@]4(C)[C@H]3CC[C@]12C", "inactive"]
]}

###

molecular target: Luciferin 4-monooxygenase (Photinus pyralis) (UniProt P08659); test: qHTS assay to identify small molecule inhibitors of firefly luciferase (AID 1224835); note: nearly all actives have a fitted effect of over 25% in size; conditions: purified P. pyralis luciferase, luminescence inhibition; series mostly up to 115 µM
Sequence (P08659 whole entry, looked up): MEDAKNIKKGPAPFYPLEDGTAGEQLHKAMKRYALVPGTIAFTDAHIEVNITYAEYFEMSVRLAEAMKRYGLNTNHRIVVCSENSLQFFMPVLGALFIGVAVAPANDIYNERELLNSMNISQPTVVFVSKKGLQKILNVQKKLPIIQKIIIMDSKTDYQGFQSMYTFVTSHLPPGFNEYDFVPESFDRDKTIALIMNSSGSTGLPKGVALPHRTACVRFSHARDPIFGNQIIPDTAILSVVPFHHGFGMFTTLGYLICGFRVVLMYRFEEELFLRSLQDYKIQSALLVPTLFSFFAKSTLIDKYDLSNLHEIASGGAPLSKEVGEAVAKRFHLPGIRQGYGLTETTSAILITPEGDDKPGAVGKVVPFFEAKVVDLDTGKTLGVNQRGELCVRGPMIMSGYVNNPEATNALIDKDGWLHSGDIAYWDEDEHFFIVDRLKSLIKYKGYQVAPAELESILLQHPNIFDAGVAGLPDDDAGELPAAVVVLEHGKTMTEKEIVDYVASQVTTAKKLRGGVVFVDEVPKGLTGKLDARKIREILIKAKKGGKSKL
Results filed as inconclusive are left out. The source made the active and inactive calls. Calls follow the shape of the dose curve; as a rule, active = well fitted inhibition curve with a large enough effect in the repeat runs; inconclusive = weak or mixed curves; inactive = flat fitted curve, though single readings scatter.
Possible outcomes: t = active, f = inactive

{"columns": ["compound", "assay_target", "label_class"],
 "data": [
  ["C[C@]12CCC(=O)C=C1CC[C@@H]1[C@@H]2C(=O)C[C@@]2(C)[C@H]1CC[C@]2(O)C(=O)CO", "Luciferin 4-monooxygenase (Photinus pyralis) (UniProt P08659)", "f"],
  ["COc1cccc2c1C(=O)c1c(O)c3c(c(O)c1C2=O)C[C@@](O)(C(=O)CO)C[C@@H]3O[C@H]1C[C@H](N)[C@H](O)[C@H](C)O1", "Luciferin 4-monooxygenase (Photinus pyralis) (UniProt P08659)", "t"],
  ["CCC(C)CO (stereo not drawn)", "Luciferin 4-monooxygenase (Photinus pyralis) (UniProt P08659)", "f"],
  ["Cc1ccc(C)c(O)c1C", "Luciferin 4-monooxygenase (Photinus pyralis) (UniProt P08659)", "f"],
  ["Nc1ccc(Nc2ccccc2)cc1", "Luciferin 4-monooxygenase (Photinus pyralis) (UniProt P08659)", "t"],
  ["CN(C)c1nc(N(C)C)nc(N(C)C)n1", "Luciferin 4-monooxygenase (Photinus pyralis) (UniProt P08659)", "f"],
  ["CCCc1c(OCCCCc2nn[nH]n2)ccc(C(C)=O)c1O", "Luciferin 4-monooxygenase (Photinus pyralis) (UniProt P08659)", "f"],
  ["CCCCC(CC)COP(=O)(OCC(CC)CCCC)OCC(CC)CCCC (stereo not drawn)", "Luciferin 4-monooxygenase (Photinus pyralis) (UniProt P08659)", "f"]
]}

###

assay: A CellTox Green Cytotoxicity Assay to monitor cytotoxicity in HEK293 cells - 0 hour (AID 1224869); settings: CellTox Green fluorescence; series mostly up to 76.8 µM; note: nearly all actives have a fitted effect of over 50% in size
The source made the active and inactive calls. The call rests on the fitted dose curve; in most records, active means well fitted activation curve with a large enough effect in the repeat runs; inconclusive means weak or mixed curves; inactive means flat fitted curve, though single readings scatter.
Labels: true (active), false (inactive)

{"columns": ["compound", "label_class"],
 "data": [
  ["CCCCNS(=O)(=O)c1ccccc1", "false"],
  ["COc1cccc2c1C(=O)c1c(O)c3c(c(O)c1C2=O)C[C@@](O)(C(=O)CO)C[C@@H]3O[C@H]1C[C@H](N)[C@H](O)[C@H](C)O1", "false"],
  ["CCC(C)c1ccccc1O (stereo not drawn)", "false"],
  ["CN(C)c1nc(N(C)C)nc(N(C)C)n1", "false"],
  ["Cc1cccc(C(=O)O)c1", "false"],
  ["Cn1cnc([N+](=O)[O-])c1Sc1ncnc2nc[nH]c12", "false"],
  ["Nc1ccccc1N", "true"],
  ["O=C(Nc1ccc(Cl)cc1)Nc1ccc(Cl)c(Cl)c1", "false"],
  ["Cc1ccc2c(n1)Oc1ccc(C(C)C(=O)OCC(=O)N(C)C)cc1C2 (stereo not drawn)", "false"],
  ["CC(C)=CCCC(C)CCO (stereo not drawn)", "false"],
  ["CN(C)CCN(Cc1cccs1)c1ccccn1", "false"],
  ["CC(C)OC(=O)C(C)(C)Oc1ccc(C(=O)c2ccc(Cl)cc2)cc1", "false"],
  ["O=CCCCC=O", "false"]
]}

###

test: A CellTox Green Cytotoxicity Assay to monitor cytotoxicity in HEK293 cells - 24 hour (AID 1224875); settings: CellTox Green fluorescence; series mostly up to 76.8 µM; note: nearly all actives have a fitted effect of over 45% in size
Inconclusive results are not listed. Activity calls are given as the source filed them. Calls follow the shape of the dose curve; as a rule, active = well fitted activation curve with a large enough effect in the repeat runs; inconclusive = weak or mixed curves; inactive = flat fitted curve, though single readings scatter.
Possible outcomes: Yes (active), No (inactive)

{"columns": ["compound", "label_class"],
 "data": [
  ["CN(C)CCC=C1c2ccccc2CCc2ccccc21", "No"],
  ["CN(C)c1nc(N(C)C)nc(N(C)C)n1", "No"],
  ["C=CC(C)(CCC=C(C)C)OC(C)=O (stereo unspecified)", "No"],
  ["O=C(OCc1ccccc1)c1ccccc1O", "No"],
  ["Cc1cccc([N+](=O)[O-])c1C", "No"],
  ["C#C[C@]1(O)CC[C@H]2[C@@H]3CCc4cc(OC)ccc4[C@H]3CC[C@@]21C", "No"],
  ["Nc1ccccc1N", "Yes"],
  ["CCCCOCCOCCOCCO", "No"],
  ["Nc1ccc(Nc2ccccc2)cc1", "No"],
  ["CCCc1c(OCCCCc2nn[nH]n2)ccc(C(C)=O)c1O", "No"],
  ["CCCCNS(=O)(=O)c1ccccc1", "No"],
  ["Nc1ccc(Cl)cc1Cl", "No"],
  ["C[Si](C)(C)O[Si](C)(C)C", "No"],
  ["O=C1c2cccc(O)c2C(=O)c2c(O)cccc21", "No"],
  ["S=C(NC1CCCCC1)NC1CCCCC1", "No"],
  ["O=C(c1ccccc1)c1ccc(O)cc1O", "No"],
  ["c1ccncc1", "No"],
  ["C=C(C)C1CC=C(C)CC1 (stereo unspecified)", "No"],
  ["CN(C)C(=N)N=C(N)N", "No"],
  ["COc1cc([C@@H]2c3cc4c(cc3[C@H](O)[C@H]3COC(=O)[C@H]23)OCO4)cc(OC)c1OC", "No"],
  ["COc1c(Cl)c(Cl)c(Cl)c(Cl)c1Cl", "No"],
  ["CC(=O)c1ccccn1", "No"],
  ["CCC(C)CO (stereo unspecified)", "No"],
  ["CN1C(C(=O)Nc2ccccn2)=C(O)c2ccccc2S1(=O)=O", "No"],
  ["CC(C(=O)O)c1cccc(C(=O)c2ccccc2)c1 (stereo unspecified)", "No"],
  ["CC(=O)Oc1ccccc1C(=O)Nc1ncc([N+](=O)[O-])s1", "No"]
]}

###

experiment: qHTS RealTime-Glo MT Cell Viability Assay in HEK293 cells - 16 hour (AID 1224872); conditions: RealTime-Glo luminescence; series mostly up to 76.8 µM; note: nearly all actives have a fitted effect of over 50% in size
Inconclusive results are not listed. Calls of active or inactive are those of the source. The call rests on the fitted dose curve; in most records, active means well fitted cell-killing curve with a large enough effect in the repeat runs; inconclusive means weak or mixed curves, or effect the other way; inactive means flat fitted curve, though single readings scatter.
Outcomes: true (1) for active, false (0) for inactive

{"columns": ["compound", "label_class"],
 "data": [
  ["c1ccc2c(c1)c1cccc3ccc4cccc2c4c31", "false (0)"],
  ["c1cc(-c2ccncc2)ccn1", "false (0)"],
  ["O=Cc1ccccc1O", "false (0)"],
  ["CC(C)=CCC/C(C)=C\\CO", "false (0)"],
  ["CN(C)CCN(Cc1cccs1)c1ccccn1", "false (0)"],
  ["COC(C)COC(C)COC(C)CO (stereo not drawn)", "false (0)"],
  ["Cc1ccc(C(=O)c2cc(O)c(O)c([N+](=O)[O-])c2)cc1", "false (0)"],
  ["O=C1OC2(c3cc(Br)c(O)c(Br)c3Oc3c2cc(Br)c(O)c3Br)c2c(Cl)c(Cl)c(Cl)c(Cl)c21", "false (0)"],
  ["CCCCCCCCCCCO", "false (0)"],
  ["O=CCCCC=O", "false (0)"],
  ["CC(C)(C)NC(=O)[C@H]1CC[C@H]2[C@@H]3CC[C@H]4NC(=O)C=C[C@]4(C)[C@H]3CC[C@]12C", "false (0)"],
  ["Nc1ccc(Nc2ccccc2)cc1", "true (1)"],
  ["COc1cc([C@@H]2c3cc4c(cc3[C@H](O)[C@H]3COC(=O)[C@H]23)OCO4)cc(OC)c1OC", "false (0)"]
]}

The values you see were collected from PubChem BioAssay (Tox21).
